# target.or.test.system: mTOR (Homo sapiens)
# experiment.notes: mTOR enzyme assay (DELFIA format, His6-S6K substrate)
# Format: biochemical
# condition.info: read-out: mTOR Kinase Median IC50
pIC50: −log10 of the molar value.
Where pIC50 equals or exceeds 8, the correct label is met; where it does not, the label is not met.

compound: Cn1cc(/C=C2\Oc3cccc(O)c3C2=O)c2c(-c3ccc(N4CCCCC4)nc3)ccnc21 [Compound 70]
target.or.test.system: mTOR (Homo sapiens)
classification: not met
--
compound: CN1CCN(c2ccc(-c3ccnc4c3c(/C=C3\Oc5cc(O)cc(O)c5C3=O)cn4C)cc2)CC1 [Compound 56]
target.or.test.system: mTOR (Homo sapiens)
classification: met
--
compound: CN(C)C(=O)C1CCN(c2ccnc3c2c(/C=C2\Oc4cccc(O)c4C2=O)cn3C)CC1 [Compound 145]
target.or.test.system: mTOR (Homo sapiens)
classification: met
--
compound: CN(C)C(=O)C1CCN(c2ccnc3c2c(/C=C2\Oc4ccc(NC(=O)NC5CCN(C(=O)C(F)(F)F)CC5)cc4C2=O)cn3C)CC1 [Compound 300]
target.or.test.system: mTOR (Homo sapiens)
classification: not met
--
compound: Cn1cc(/C=C2\Oc3ccc(NS(C)(=O)=O)cc3C2=O)c2c(-c3ccccc3)ccnc21 [Compound 162]
target.or.test.system: mTOR (Homo sapiens)
classification: not met
--
compound: Cn1cc(/C=C2\Oc3cccc(O)c3C2=O)c2c(-c3ccccc3)ccnc21 [Compound 31]
target.or.test.system: mTOR (Homo sapiens)
classification: met
--
compound: Cn1cc(/C=C2\Oc3cc(O)cc(O)c3C2=O)c2c(-c3ccc(C(N)=NO)cc3)ccnc21 [Compound 20]
target.or.test.system: mTOR (Homo sapiens)
classification: met
--
compound: CN(C)C1CCN(c2ccnc3c2c(/C=C2\Oc4cccc(O)c4C2=O)cn3C)C1 (stereo not shown) [Compound 112]
target.or.test.system: mTOR (Homo sapiens)
classification: not met
--
compound: Cn1cc(/C=C2\Oc3cc(O)cc(O)c3C2=O)c2c(-c3ccc(F)c(C(=O)Nc4ccccc4)c3)ccnc21 [Compound 98]
target.or.test.system: mTOR (Homo sapiens)
classification: met
--
compound: Cn1cc(/C=C2\Oc3cccc(O)c3C2=O)c2c(-c3ccc(S(C)(=O)=O)cc3)ccnc21 [Compound 73]
target.or.test.system: mTOR (Homo sapiens)
classification: met
--
compound: Cn1cc(/C=C2\Oc3cccc(O)c3C2=O)c2c(N3CC4CCC(C3)O4)ccnc21 [Compound 55]
target.or.test.system: mTOR (Homo sapiens)
classification: met

====

# target.or.test.system: UniProt P42345
# experiment.notes: mTOR enzyme assay (DELFIA format, His6-S6K substrate)
# Format: biochemical
# condition.info: read-out: mTOR Kinase Median IC50
pIC50: −log10 of the molar value.
pIC50 reference

compound: Cn1cc(/C=C2\Oc3cc(O)cc(O)c3C2=O)c2c(Oc3ccccc3)ccnc21 [Compound 94]
pIC50: 7.98
//
compound: Cn1cc(/C=C2\Oc3ccc(NC(=O)Nc4ccc(N5CCOCC5)nc4)cc3C2=O)c2c(N3CC4CCC(C3)O4)ccnc21 [Compound 219]
pIC50: 7.54
//
compound: Cn1cc(/C=C2\Oc3cc(O)cc(O)c3C2=O)c2c(N3CCCCC3)ccnc21 [Compound 40]
pIC50: 9.22
//
compound: Cn1cc(/C=C2\Oc3ccc(NC(=O)Nc4cccnc4)cc3C2=O)c2c(N3CCC(C(=O)N4CCCC4)CC3)ccnc21 [Compound 253]
pIC50: 8.09

====

# target.or.test.system: mTOR (Homo sapiens)
# experiment.notes: mTOR enzyme assay (DELFIA format, His6-S6K substrate)
# Assay type: biochemical
# condition.info: read-out: mTOR Kinase Median IC50
IC50 reference
readout.name: IC50 (nM)

compound.structure.string: CNC(=O)Nc1ccc2c(c1)C(=O)/C(=C/c1cn(C)c3nccc(N4CCC(C(=O)N(C)C)CC4)c13)O2
readout.name: IC50
limit.sign: =
val: 6.7

compound.structure.string: Cn1cc(/C=C2\Oc3ccc(NC(=O)Nc4cccnc4)cc3C2=O)c2c(N3CCC(C(=O)N4C5CCC4COC5)CC3)ccnc21
readout.name: IC50
limit.sign: =
val: 5.4

compound.structure.string: CNC(=O)Nc1ccc2c(c1)C(=O)/C(=C/c1cn(C)c3nccc(N4C5CCC4COC5)c13)O2
readout.name: IC50
limit.sign: =
val: 31

compound.structure.string: Cn1cc(/C=C2\Oc3cccc(NC(=O)C(C)(C)C)c3C2=O)c2c(-c3ccccc3)ccnc21
readout.name: IC50
limit.sign: >
val: 4000

====

melting point reference

molecule: Cn1cc(/C=C2\Oc3cccc(O)c3C2=O)c2c(N3CCC(N)CC3)ccnc21 [Compound 139]
melting point: 260 °C
//
molecule: Cn1cc(/C=C2\Oc3ccc(NC(=O)Nc4ccncc4)cc3C2=O)c2c(N3CC4CCC(C3)O4)ccnc21 [Compound 198]
melting point: 257 to 259 °C
//
molecule: CNC(=O)Nc1ccc2c(c1)C(=O)/C(=C/c1cn(C)c3nccc(N4CC5CCC4CO5)c13)O2 (stereo not shown) [Compound 279]
melting point: 197 to 205 °C (dec.)
//
molecule: C[C@@H]1CN(c2ccnc3c2c(/C=C2\Oc4ccc(NC(=O)Nc5cccnc5)cc4C2=O)cn3C)C[C@H](C)O1 [Compound 296]
melting point: 255 to 260 °C
//
molecule: Cn1cc(/C=C2\Oc3cc(O)cc(O)c3C2=O)c2c(-c3ccc(CO)cc3)ccnc21 [Compound 67]
melting point: > 330 °C
//
molecule: Cn1cc(/C=C2\Oc3ccc(Br)cc3C2=O)c2c(-c3ccccc3)ccnc21 [Compound 37]
melting point: 227 to 229 °C
//
molecule: COCCC1CN(C(=O)c2ccc(-c3ccnc4c3c(/C=C3\Oc5cccc(O)c5C3=O)cn4C)cc2)CCO1 (stereo not shown) [Compound 305]
melting point: 154 to 160 °C
//
molecule: CC(=O)Nc1ccc2c(c1)C(=O)/C(=C/c1cn(C)c3nccc(N4CC5CCC(C4)O5)c13)O2 [Compound 155]
melting point: 275 to 285 °C (dec.)
//
molecule: COCCN(C)C(=O)C1CCN(c2ccnc3c2c(/C=C2\Oc4ccc(NC(=O)Nc5cccnc5)cc4C2=O)cn3C)CC1 [Compound 246]
melting point: 282 to 285 °C
//
molecule: Cn1cc(/C=C2\Oc3cc(O)cc(O)c3C2=O)c2c(C#Cc3ccccc3)ccnc21 [Compound 39]
melting point: 308 to 310 °C
//
molecule: CN(C)CCNC(=O)Nc1ccc2c(c1)C(=O)/C(=C/c1cn(C)c3nccc(N4CC5CCC(C4)O5)c13)O2 [Compound 193]
melting point: 175 to 180 °C
//
molecule: Cn1cc(/C=C2\Oc3ccc(C(=O)O)cc3C2=O)c2c(-c3ccccc3)ccnc21 [Compound 176]
melting point: 329 to 342 °C
//
molecule: Cn1cc(/C=C2\Oc3ccc(N)cc3C2=O)c2c(-c3ccccc3)ccnc21 [Compound 58]
melting point: 232 to 239 °C
//
molecule: Cn1cc(/C=C2\Oc3cccc(O)c3C2=O)c2c(N3CCC(C(=O)N4CCCC4)CC3)ccnc21 [Compound 152]
melting point: 191 to 207 °C
//
molecule: Cn1cc(/C=C2\Oc3cccc(O)c3C2=O)c2c(-c3ccc(CO)nc3)ccnc21 [Compound 76]
melting point: 270 to 275 °C
//
molecule: CNC(=O)Nc1ccc2c(c1)C(=O)/C(=C/c1cn(C)c3nccc(N4CC5CC4CO5)c13)O2 (stereo not shown) [Compound 284]
melting point: 242 to 247 °C (dec.)
//
molecule: CC(=O)Nc1ccc2c(c1)C(=O)/C(=C/c1cn(C)c3nccc(-c4ccccc4)c13)O2 [Compound 154]
melting point: 332 to 335 °C
//
molecule: CNC(=O)Nc1cccc2c1C(=O)/C(=C/c1cn(C)c3nccc(-c4ccccc4)c13)O2 [Compound 99]
melting point: 273 to 275 °C
//
molecule: CN1CCN(CCNC(=O)Nc2ccc3c(c2)C(=O)/C(=C/c2cn(C)c4nccc(N5CC6CCC(C5)O6)c24)O3)CC1 [Compound 194]
melting point: 170 to 172 °C

====

# target.or.test.system: UniProt P42345
# experiment.notes: mTOR enzyme assay (DELFIA format, His6-S6K substrate)
# Type: biochemical
# condition.info: read-out: mTOR Kinase Median IC50
pIC50: −log10 of the molar value.

compound: CC(=O)Nc1ccc2c(c1)C(=O)/C(=C/c1cn(C)c3nccc(N4CC5CCC(C4)O5)c13)O2
pIC50: 7.84

compound: CCC1(CC)CN(c2ccnc3c2c(/C=C2\Oc4ccc(NC(=O)Nc5cccnc5)cc4C2=O)cn3C)CCO1
pIC50: 7.67

compound: Cn1cc(/C=C2\Oc3cccc(O)c3C2=O)c2c(-c3ccc(S(=O)(=O)N4CCCCC4)cc3)ccnc21
pIC50: 7.24

compound: Cn1cc(/C=C2\Oc3cc(O)cc(O)c3C2=O)c2c(-c3ccccc3Cl)ccnc21
pIC50: 8.55

compound: Cn1cc(/C=C2\Oc3ccc(NC(=O)Nc4cccnc4)cc3C2=O)c2c(N3CC4CCC3CO4)ccnc21 (stereo not drawn)
pIC50: 8.12

compound: Cn1cc(/C=C2\Oc3cc(O)cc(O)c3C2=O)c2c(N3CCCC3)ccnc21
pIC50: 8.80

compound: Cn1cc(/C=C2\Oc3cccc(O)c3C2=O)c2c(-c3ccc(C(=O)N4CCOCC4)cc3)ccnc21
pIC50: 9.30

compound: Cn1cc(/C=C2\Oc3ccc(NC(=O)NC4CNC4)cc3C2=O)c2c(N3CC4CCC(C3)O4)ccnc21
pIC50: 7.94

compound: Cn1cc(/C=C2\Oc3cc(O)cc(O)c3C2=O)c2c(-c3ccc(O)cc3)ccnc21
pIC50: 9.30

compound: Cn1cc(/C=C2\Oc3cc(O)ccc3C2=O)c2c(-c3ccccc3)ccnc21
pIC50: 7.72

compound: COc1ccccc1-c1ccnc2c1c(/C=C1\Oc3cc(O)cc(O)c3C1=O)cn2C
pIC50: 8.85

compound: Cn1cc(/C=C2\Oc3cccc(O)c3C2=O)c2c(-c3ccc(C(=O)N4CCNCC4)cc3)ccnc21
pIC50: 8.70

compound: CNC(=O)Nc1ccc2c(c1)C(=O)/C(=C/c1cn(C)c3nccc(N4CCC(C(=O)N5CCOCC5)CC4)c13)O2
pIC50: 7.78

compound: CNC(=O)Nc1ccc2c(c1)C(=O)/C(=C/c1cn(C)c3nccc(-c4ccc(C(=O)N5CCOCC5)cc4)c13)O2
pIC50: 7.82

compound: COc1ccc(-c2ccnc3c2c(/C=C2\Oc4cccc(O)c4C2=O)cn3C)cc1S(=O)(=O)N1CCCCC1
pIC50: 7.78

compound: Cn1cc(/C=C2\Oc3cccc(O)c3C2=O)c2c(N3CCC(C(=O)N4C5CCCC4COC5)CC3)ccnc21
pIC50: 8.49

compound: Cn1cncc1CNC(=O)Nc1ccc2c(c1)C(=O)/C(=C/c1cn(C)c3nccc(N4CC5CCC(C4)O5)c13)O2
pIC50: 6.80

compound: CN(C)CCOc1ccc(NC(=O)Nc2ccc3c(c2)C(=O)/C(=C/c2cn(C)c4nccc(N5CCC(C(=O)N(C)C)CC5)c24)O3)cc1
pIC50: 7.68

compound: Cn1cc(/C=C2\Oc3cc(O)cc(O)c3C2=O)c2c(-c3cccc(C(=O)Nc4ccc(F)cc4)c3)ccnc21
pIC50: 9.15

compound: COCCN(C)CCCNC(=O)Nc1ccc2c(c1)C(=O)/C(=C/c1cn(C)c3nccc(N4CC5CCC(C4)O5)c13)O2
pIC50: 7.19

compound: CC1CN(c2ccnc3c2c(/C=C2\Oc4cccc(O)c4C2=O)cn3C)CC(C)O1 (stereo not drawn)
pIC50: 8.89

compound: COCC1CN(C(=O)c2ccc(-c3ccnc4c3c(/C=C3\Oc5cccc(O)c5C3=O)cn4C)cc2)CCO1 (stereo not drawn)
pIC50: 8.85

compound: Cn1cc(/C=C2\Oc3cccc(O)c3C2=O)c2c(N3CC4CC3CO4)ccnc21 (stereo not drawn)
pIC50: 8.36

compound: CN(C)C(=O)C1CCN(c2ccnc3c2c(/C=C2\Oc4ccc(NC(=O)Nc5ccc(N6CCOCC6)nc5)cc4C2=O)cn3C)CC1
pIC50: 7.01
